# target_entity: sOGT (Homo sapiens (Human))
# measurement_description: Fluorescence polarization screen of quinolinesulfonamide library for OGT inhibition (displacement of fluorescein-linked UDP-GlcNAc analog)
# Format: binding
# condition_details: rough Ki values from fluorescence polarization results and Kd of the probe; 1-2 μM sOGT, 50 nM probe
# Procedure: Compound libraries of the 4 concentrations in duplicated were then transferred to the assay plates using a 100 nL pin array, resulting in a final compound concentration of 25 μg/mL or ˜70 μM at the highest of the four concentrations, assuming an average compound MW of 350. Using a Perkin Elmer Envision® microplate reader, the sample was excited at 480 nm in the vertical plane, and simultaneous emission intensity (535 nm) of the vertical and horizontal polarization planes was measured. […]
pKi: −log10 of the molar value.
Quick rule for you: pKi at 5 or higher means rule met, lower means rule not met.

Before answering, review these 2 worked examples.
Cc1cc(C)c(NC(=O)C(NS(=O)(=O)c2ccc3c(c2)CCC(=O)N3)c2ccccc2)c(C)c1 (stereo not drawn): rule met
Cc1cccc(C)c1NC(=O)C(NS(=O)(=O)c1ccc2c(c1)CCC(=O)N2)c1ccccc1 (stereo not drawn): rule not met

q: Say whether O=C1CCc2cc(S(=O)(=O)NC(C(=O)N3CCN(c4ccccn4)CC3)c3ccccc3)ccc2N1 (stereo not drawn) shows pKi of 5 or more.
a: rule met

q: Say whether O=C1CCc2cc(S(=O)(=O)NC(C(=O)N3CCN(C4CCCCC4)CC3)c3ccccc3)ccc2N1 (stereo not drawn) shows pKi of 5 or more.
a: rule not met

q: Say whether CCN(CC)C(=O)C(NS(=O)(=O)c1ccc2c(c1)CCC(=O)N2)c1ccccc1 (stereo not drawn) shows pKi of 5 or more.
a: rule not met

q: Say whether O=C1CCc2cc(S(=O)(=O)NC(C(=O)N3CCC(Cc4ccccc4)CC3)c3ccccc3)ccc2N1 (stereo not drawn) shows pKi of 5 or more.
a: rule met

q: Say whether CCOc1ccccc1NS(=O)(=O)c1ccc2[nH]c(=O)ccc2c1 shows pKi of 5 or more.
a: rule met

q: Say whether COc1cc2c(cc1OC)C(C)N(S(=O)(=O)c1ccc3[nH]c(=O)ccc3c1)CC2 (stereo not drawn) shows pKi of 5 or more.
a: rule not met

q: Say whether O=C1CCc2cc(S(=O)(=O)NC(C(=O)N(Cc3ccco3)Cc3cccs3)c3ccccc3)ccc2N1 (stereo not drawn) shows pKi of 5 or more.
a: rule met

q: Say whether Cc1ccc(N2CCN(C(=O)C(NS(=O)(=O)c3ccc4c(c3)CCC(=O)N4)c3ccccc3)CC2C)cc1 (stereo not drawn) shows pKi of 5 or more.
a: rule met

q: Say whether O=C(O)CC(NS(=O)(=O)c1ccc2c(c1)CCC(=O)N2)c1cccc(Cl)c1 (stereo not drawn) shows pKi of 5 or more.
a: rule not met

q: Say whether CC(C)N(Cc1ccccc1)C(=O)C(NS(=O)(=O)c1ccc2c(c1)CCC(=O)N2)c1ccccc1 (stereo not drawn) [drawing 98] shows pKi of 5 or more.
a: rule met

q: Say whether CC(c1cccs1)N(Cc1ccco1)C(=O)C(NS(=O)(=O)c1ccc2c(c1)CCC(=O)N2)c1ccccc1 (stereo not drawn) shows pKi of 5 or more.
a: rule met

q: Say whether O=C1CCc2cc(S(=O)(=O)NC(C(=O)NCc3ccccc3)c3ccccc3)ccc2N1 (stereo not drawn) shows pKi of 5 or more.
a: rule not met

---

# target_entity: sOGT (Homo sapiens (Human), UniProt O15294)
# Sequence (O15294 382-1046, species assumed): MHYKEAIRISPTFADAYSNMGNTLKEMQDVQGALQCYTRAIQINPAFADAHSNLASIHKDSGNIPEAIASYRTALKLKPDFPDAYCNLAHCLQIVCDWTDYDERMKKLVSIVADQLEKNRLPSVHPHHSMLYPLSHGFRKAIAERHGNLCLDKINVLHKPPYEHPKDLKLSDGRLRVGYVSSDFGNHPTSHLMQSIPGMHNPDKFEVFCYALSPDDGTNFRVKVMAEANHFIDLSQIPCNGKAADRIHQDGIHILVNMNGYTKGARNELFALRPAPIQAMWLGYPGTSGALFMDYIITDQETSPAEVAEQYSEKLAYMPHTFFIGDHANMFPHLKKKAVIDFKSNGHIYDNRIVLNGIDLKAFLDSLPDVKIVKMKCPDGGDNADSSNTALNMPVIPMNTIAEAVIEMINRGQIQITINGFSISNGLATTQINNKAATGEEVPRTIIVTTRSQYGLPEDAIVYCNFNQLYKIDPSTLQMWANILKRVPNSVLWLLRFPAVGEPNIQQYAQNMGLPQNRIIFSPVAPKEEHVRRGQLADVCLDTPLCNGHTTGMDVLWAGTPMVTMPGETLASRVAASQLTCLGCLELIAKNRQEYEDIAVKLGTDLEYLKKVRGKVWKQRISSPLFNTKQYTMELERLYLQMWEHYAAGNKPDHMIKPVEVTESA
Recorded measurements of pKi, one per entry
API: returns pKi as number; meaning -log10 of concentration in mol/L.

For orientation, consider the following solved cases.
Cc1cccc(N(C)C(=O)C(NS(=O)(=O)c2ccc3c(c2)CCC(=O)N3)c2ccccc2)c1 (stereo not shown): 5.13
CN(Cc1ccco1)C(=O)C(Cc1ccccc1)NS(=O)(=O)c1ccc2c(c1)CCC(=O)N2 (stereo not shown): 4.89

q: Given the entry COc1ccc(NS(=O)(=O)c2ccc3[nH]c(=O)ccc3c2)cc1OC , what pKi was observed with sOGT (Homo sapiens (Human), UniProt O15294)?
a: 5.14

q: Given the entry Cc1ccc(N2CCN(C(=O)C(NS(=O)(=O)c3ccc4c(c3)CCC(=O)N4)c3ccccc3)CC2)cc1 (stereo not shown) , what pKi was observed with sOGT (Homo sapiens (Human), UniProt O15294)?
a: 5.05

The reported measurements were obtained from patent US8957075B2.
